Attribution: patent US8501946B2

Assayed System: human recombinant P2X7 receptors (Homo sapiens, UniProt Q99572)
Construct: expressed in transfected cells
Run Description: Ethidium Accumulation Assay 2 (HEK293 cells, ATP-induced ethidium uptake)
Type: cell-based
Applied Conditions: HEK293 cells expressing human P2X7; sometimes mean of more than one measurement; read-out: Assay 2 (antagonist pIC50 for blocking ATP responses) (converted)
Endpoint Name: IC50

Query: Under human recombinant P2X7 receptors (Homo sapiens, UniProt Q99572): IC50 value of Cc1csc(-c2nnc3n2CCN(C(=O)c2ccc(Cl)c(F)c2Cl)C3)n1 [Example 191] ?
Response: < 100 nM

Query: Short answer please: IC50, human recombinant P2X7 receptors (Homo sapiens, UniProt Q99572), entry Cc1c(C(=O)N2CCn3c(nnc3-c3cnccn3)C2)ccc(F)c1Cl [Example 146]
Response: < 10 nM

Query: Give IC50 (human recombinant P2X7 receptors (Homo sapiens, UniProt Q99572)) of the following compound: Cc1ccc(-c2nnc3n2CCN(C(=O)c2cccc(C(F)(F)F)c2Cl)C3)o1 [Example 159]
Response: < 10 nM

Query: Please tell me: IC50 of Cc1c(C(=O)N2CCn3c(nnc3-c3ccc(F)cn3)C2)ccc(F)c1Cl [Example 156] , system human recombinant P2X7 receptors (Homo sapiens, UniProt Q99572)?
Response: < 10 nM

* * *

Assayed System: human recombinant P2X7 receptors (Homo sapiens)
Construct: expressed in transfected cells
Sequence (Q99572 1-595): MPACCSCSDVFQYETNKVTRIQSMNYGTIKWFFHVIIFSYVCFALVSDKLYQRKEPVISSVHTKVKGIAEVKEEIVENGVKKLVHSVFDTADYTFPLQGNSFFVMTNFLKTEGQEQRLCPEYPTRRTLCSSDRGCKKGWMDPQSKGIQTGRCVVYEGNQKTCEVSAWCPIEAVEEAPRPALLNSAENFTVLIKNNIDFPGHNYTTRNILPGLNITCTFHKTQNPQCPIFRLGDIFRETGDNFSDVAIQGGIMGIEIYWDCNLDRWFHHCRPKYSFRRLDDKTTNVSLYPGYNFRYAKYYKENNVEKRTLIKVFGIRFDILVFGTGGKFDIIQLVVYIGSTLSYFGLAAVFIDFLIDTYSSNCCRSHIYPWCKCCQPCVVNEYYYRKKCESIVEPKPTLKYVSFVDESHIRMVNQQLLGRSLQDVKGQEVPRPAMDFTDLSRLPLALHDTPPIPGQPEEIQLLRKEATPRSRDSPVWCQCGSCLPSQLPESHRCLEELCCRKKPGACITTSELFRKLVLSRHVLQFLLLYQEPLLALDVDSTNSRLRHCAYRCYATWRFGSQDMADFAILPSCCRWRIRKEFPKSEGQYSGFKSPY
Run Description: Ethidium Accumulation Assay 1 (HEK293 cells, ATP-induced ethidium uptake)
Type: cell-based
Applied Conditions: HEK293 cells expressing human P2X7; 1 mM ATP; sometimes mean of more than one measurement; read-out: Assay 1 (antagonist pIC50 for blocking ATP responses) (converted)
Endpoint Name: IC50

Query: IC50 for `O=C(c1cccc(Cl)c1Cl)N1CCn2c(nnc2-c2cscn2)C1` ?
Response: < 10 nM

Query: Request the reported IC50 associated with `COc1cccc(-c2nnc3n2CCN(C(=O)c2ccc(F)cc2Cl)C3)c1`
Response: < 100 nM

Query: Can you share its IC50? I mean this molecule: `O=C(c1cccc(C(F)(F)F)c1Cl)N1CCn2c(nnc2N2CCOCC2)C1`
Response: < 501 nM

Query: For the molecule `Cn1cccc1-c1nnc2n1CCN(C(=O)c1ccc(F)cc1Cl)C2` , what IC50 is on record?
Response: < 100 nM

Query: Which value of IC50 has been reported for `O=C(c1ccc(F)cc1Cl)N1CCn2c(nnc2-c2cccc3cc[nH]c23)C1` in the records?
Response: < 100 nM

Query: Which IC50 is reported for this molecule? `O=C(c1cccc(C(F)(F)F)c1Cl)N1CCn2c(nnc2C(F)(F)F)C1`
Response: < 100 nM

Query: // returns reported IC50 for input `O=C(c1ccccc1Cl)N1CCn2c(nnc2-c2ncccc2F)C1`
Response: < 100 nM

Query: # get_value(readout='IC50', item= `CCc1nnc2n1CCN(C(=O)c1cccc(C(F)(F)F)c1Cl)C2` )
Response: < 100 nM

Query: Item `Cc1nnc2n1CCN(C(=O)c1cccc(C(F)(F)F)c1Cl)C2` has what recorded IC50?
Response: < 100 nM

* * *

Assayed System: human recombinant P2X7 receptors (Homo sapiens, UniProt Q99572)
Construct: expressed in transfected cells
Run Description: Ethidium Accumulation Assay 2 (HEK293 cells, ATP-induced ethidium uptake)
Format: cell-based
Applied Conditions: HEK293 cells expressing human P2X7; sometimes mean of more than one measurement; read-out: Assay 2 (antagonist pIC50 for blocking ATP responses) (converted)
Endpoint Name: IC50

Query: Look up IC50: Cc1c(C(=O)N2CCn3c(nnc3-c3ccc(F)cn3)C2)ccc(F)c1F [Example 155]
Response: < 100 nM

Query: // lookup IC50 for O=C(c1ccc(F)cc1Cl)N1CCn2c(nnc2-c2cccc(Cl)c2)C1 [Example 126]
Response: < 100 nM

Query: What value of measured IC50 is listed for [2H]c1ccnc(-c2nnc3n2CCN(C(=O)c2ccc(Cl)c(F)c2Cl)C3)c1 [Example 182] ?
Response: < 10 nM

Query: Field request: IC50 | item: O=C(c1ccc(Cl)c(F)c1Cl)N1CCn2c(nnc2-c2nccs2)C1 [Example 187]
Response: < 10 nM

Query: // IC50 lookup, key: O=C(c1ccc(F)c(Cl)c1Cl)N1CCn2c(nnc2-c2ccc(F)cn2)C1 [Example 114]
Response: < 10 nM

Query: Which IC50 value is on record for Cc1csnc1-c1nnc2n1CCN(C(=O)c1ccc(Cl)c(F)c1Cl)C2 [Example 203] ?
Response: < 100 nM

Query: Request the reported IC50 associated with O=C(c1ccc(Cl)c(F)c1Cl)N1CCn2c(nnc2-c2ccccn2)C1 [Example 173]
Response: < 10 nM

Query: Given Cc1c(Cl)cccc1C(=O)N1CCn2c(nnc2-c2ncns2)C1 [Example 195] , state its recorded IC50.
Response: < 10 nM

Query: Give the measured IC50 of O=C(c1ccc(Cl)c(F)c1Cl)N1CCn2c(nnc2-c2ncccc2O)C1 [Example 175] .
Response: < 100 nM

Query: Data request, read-out IC50, for O=C(c1cccc(C(F)(F)F)c1Cl)N1CCn2c(nnc2-c2cccnn2)C1 [Example 44]
Response: < 100 nM

Query: State the recorded IC50 for this entry: N#Cc1c(Cl)cccc1C(=O)N1CCn2c(nnc2-c2ccccn2)C1 [Example 204]
Response: < 10 nM

Query: Data request, read-out IC50, for O=C(c1cccc(C(F)(F)F)c1Cl)N1CCn2c(nnc2-c2ccc(F)cn2)C1 [Example 45]
Response: < 10 nM

Query: What measured IC50 goes with O=C(c1ccc(Cl)cc1Cl)N1CCn2c(nnc2-c2cnsn2)C1 [Example 160] ?
Response: < 100 nM

Query: Can you share its IC50? I mean this compound: O=C(c1ccc(Cl)c(F)c1Cl)N1CCn2c(nnc2-c2ccns2)C1 [Example 178]
Response: < 100 nM

Query: Request the reported IC50 associated with Cc1cc(Cl)ccc1C(=O)N1CCn2c(nnc2-c2cnccn2)C1 [Example 145]
Response: < 100 nM

Query: IC50; subject: Cc1ccnc(-c2nnc3n2CCN(C(=O)c2ccc(Cl)c(F)c2Cl)C3)c1 [Example 172]
Response: < 100 nM

Query: Report IC50 for O=C(c1ccc(Cl)cc1Cl)N1CCn2c(nnc2-c2ccns2)C1 [Example 158] please.
Response: < 100 nM

Query: Tell me the measured IC50 of O=C(c1ccc(Cl)cc1Cl)N1CCn2c(nnc2-c2ncns2)C1 [Example 205] , please.
Response: < 100 nM

* * *

Kindly state IC50 for each of the entries shown.
Assayed System: human recombinant P2X7 receptors (Homo sapiens, UniProt Q99572)
Construct: expressed in transfected cells
Sequence (Q99572 1-595): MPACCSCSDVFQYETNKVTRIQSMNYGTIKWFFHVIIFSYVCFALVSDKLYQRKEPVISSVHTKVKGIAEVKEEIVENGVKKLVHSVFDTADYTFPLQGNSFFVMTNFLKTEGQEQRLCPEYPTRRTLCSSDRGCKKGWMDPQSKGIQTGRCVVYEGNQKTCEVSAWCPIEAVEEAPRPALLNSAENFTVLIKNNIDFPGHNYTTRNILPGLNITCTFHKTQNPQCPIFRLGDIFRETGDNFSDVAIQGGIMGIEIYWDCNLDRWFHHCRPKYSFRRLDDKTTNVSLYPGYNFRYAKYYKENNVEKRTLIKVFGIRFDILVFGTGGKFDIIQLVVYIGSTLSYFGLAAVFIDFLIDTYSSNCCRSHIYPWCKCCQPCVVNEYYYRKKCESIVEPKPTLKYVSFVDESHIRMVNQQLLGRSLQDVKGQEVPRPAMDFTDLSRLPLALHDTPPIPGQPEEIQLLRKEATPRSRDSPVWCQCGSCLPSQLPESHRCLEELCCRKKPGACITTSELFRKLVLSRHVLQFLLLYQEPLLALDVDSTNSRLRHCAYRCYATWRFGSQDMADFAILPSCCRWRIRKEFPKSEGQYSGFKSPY
Run Description: Ethidium Accumulation Assay 1 (HEK293 cells, ATP-induced ethidium uptake)
Type: cell-based
Applied Conditions: HEK293 cells expressing human P2X7; 1 mM ATP; sometimes mean of more than one measurement; read-out: Assay 1 (antagonist pIC50 for blocking ATP responses) (converted)

Query: Form field: IC50 recorded for `CN(C)c1nnc2n1CCN(C(=O)c1cccc(C(F)(F)F)c1Cl)C2` with human recombinant P2X7 receptors (Homo sapiens, UniProt Q99572) (enter value)
Response: < 100 nM

Query: Find the measured IC50: item `Cc1cccnc1-c1nnc2n1CCN(C(=O)c1cccc(Cl)c1Cl)C2` , target or system human recombinant P2X7 receptors (Homo sapiens, UniProt Q99572).
Response: < 100 nM

Query: Request: IC50, test system human recombinant P2X7 receptors (Homo sapiens, UniProt Q99572), entry `O=C(c1cccc(C(F)(F)F)c1Cl)N1CCn2c(nnc2-c2ncccn2)C1`
Response: < 10 nM
